system: SW-620 colon; experiment: NCI tumour cell line growth inhibition, 48 h
As shown below, each of these compounds has a reported TGI value.

COMPOUND	TGI
C[C@]12CCC3[C@@H](CCC45OC4C(=O)CC[C@]35C)C1Cc1cnn(-c3ccc(F)cc3)c1N2 (some centres undefined)	97 µM
CC1=NN(C(=O)Cc2ccccc2)C(=O)/C1=C\c1ccc(O)cc1	> 100 µM
O=C1NC(=N[C@@H](CO)c2ccccc2)S/C1=C\c1ccc2ncccc2c1	> 25 µM
O=C(c1ccco1)N(C(=O)N1CCCCC1)c1ccccc1	> 100 µM

###

system: UACC-62 melanoma; assay: NCI tumour cell line growth inhibition, 48 h

COMPOUND	GI50
Nc1ncnc2c1N=C(c1ccc3c(c1)OCO3)CC(c1ccc(Cl)cc1)N2 (stereo not drawn)	72.1 µM
CCCCCCCCCCCCCCCCCCOc1ccccc1CC(=O)NCC[N+]1(C)CCOCC1	4.31 µM
CCNc1nc(O)c(/C=C2\C=Nc3ncccc32)s1	3.01 µM

Taken from PubChem BioAssay (NCI).
